- Test system: Candida antarctica
- experiment: Inhibition of Candida antarctica lipase at 50 uM
Reported inhibition values are given for each entry in this list.

{"cpdSmiles": "CC1(C)[C@@H](O)CC[C@]2(C)[C@H]3C(=O)C=C4[C@@H]5C[C@@](C)(C(=O)OCCCCCCBr)CC[C@]5(C)CC[C@@]4(C)[C@]3(C)CC[C@@H]12", "inhibition (%)": 45}
{"cpdSmiles": "CC1(C)[C@@H](O)CC[C@]2(C)[C@H]3C(=O)C=C4[C@@H]5C[C@@](C)(C(=O)NCCCN)CC[C@]5(C)CC[C@@]4(C)[C@]3(C)CC[C@@H]12", "inhibition (%)": 51}
{"cpdSmiles": "COC(=O)[C@@]1(C)CC[C@]2(C)CC[C@]3(C)C(=CC(=O)[C@@H]4[C@@]5(C)CC[C@H](OC(=O)[C@@H](N)CCN)C(C)(C)[C@@H]5CC[C@]43C)[C@@H]2C1", "inhibition (%)": 38}
{"cpdSmiles": "COC(=O)[C@@]1(C)CC[C@]2(C)CC[C@]3(C)C(=CC(=O)[C@@H]4[C@@]5(C)CC[C@H](OC(=O)[C@@H](N)CCC(=O)OCc6ccccc6)C(C)(C)[C@@H]5CC[C@]43C)[C@@H]2C1", "inhibition (%)": 51}
